Task for the reader: assign each of the following compounds its reported GI50.
System: KM12
Experiment: NCI tumour cell line growth inhibition, 48 h
Active and inactive are the calls of the source. Rule as the data show it: active = GI50 up to about 1.1 µM and inactive = higher.

See these solved cases before continuing.
COMPOUND: Clc1nc(Cl)c(-c2ccccc2)c(Cl)n1
ASSAY_VALUE: 4.68 µM (inactive)
//
COMPOUND: Cc1nc(/C(=N\n2cnnc2)Nc2ccc(Br)cc2)no1
ASSAY_VALUE: > 100 µM (inactive)
//
COMPOUND: CC(C)C[C@H](NC(=O)CCc1ccccc1)B(O)O
ASSAY_VALUE: 16.7 µM (inactive)
//
COMPOUND: CC(C)OC1=C(CC2(C)OCCO2)C(=O)C12OCCO2
ASSAY_VALUE: > 100 µM (inactive)
//
COMPOUND: Nc1ncnc2c1ncn2C1OC(COP(=O)(O)CP(=O)(O)O)C(O)C1O (stereo unspecified)
ASSAY_VALUE: > 100 µM (inactive)

Batch request: GI50 for each of the following compounds.
1. O=C1CN(c2ccccc2)C(=O)CN1NCNN1CC(=O)N(c2ccccc2)CC1=O
2. CN(C)/C=N/S(=O)(=O)c1nn2c(C=O)c(-c3ccccc3)nc2s1
3. CC1OC2OC3C(OCC(O)C3O)OC(=O)[C@]34CCC(C)(C)CC3C3=CCC5[C@@]6(C)C[C@H](O)[C@H](OC7OC(CO)C(O)C(O)C7OC7OC(COC(=O)CC(C)(O)CC(=O)OC1C(OC1OC(CO)C(O)C(O)C1O)C2O)C(O)C(O)C7O)[C@@](C)(CO)C6CC[C@@]5(C)[C@]3(C)CC4 (stereo partly specified)
4. NC(Cc1n[nH]c2ccccc12)C(=O)O (stereo unspecified)

Ans.
1. > 100 µM (inactive)
2. 22.6 µM (inactive)
3. 2.37 µM (inactive)
4. > 100 µM (inactive)

Batch request: GI50 for each of the following compounds.
1. C[C@@H]1OC(=O)N2CCCC(=C3SCCCS3)C12 (stereo partly specified)
2. O=C(CSc1nc2ccccc2s1)c1sc2sc3ccccc3[n+]2c1[O-]

Ans.
1: 60.3 µM (inactive); 2: > 100 µM (inactive)

====

System: MOLT-4
Assay: NCI tumour cell line growth inhibition, 48 h
Calls of active or inactive are those of the source. No stated cut-off is given here; in the data, active = GI50 up to about 1.1 µM and inactive = higher.
Task for the reader: assign each of the following compounds its reported GI50.

See these solved cases before continuing.
SMILES_REPR: COc1ccc(C[C@@H]2Cc3cc(OC)c(OC)cc3CN2C)cc1
GI50: > 100 µM (inactive)
//
SMILES_REPR: CC(C)OC1=C(CC2(C)OCCO2)C(=O)C12OCCO2
GI50: > 100 µM (inactive)
//
SMILES_REPR: N#CC(C#N)=C1SCC(=O)CS1
GI50: > 100 µM (inactive)
//
SMILES_REPR: CCOC(=O)c1nc2cc(F)c(N3CCOCC3)cc2[nH]c1=O
GI50: > 100 µM (inactive)

Batch request: GI50 for each of the following compounds.
1. O=C1O/C(=C\c2ccc(O)cc2)C(c2ccc(O)c(Cl)c2)=C1Cl
2. Cc1nc(/C(=N\n2cnnc2)Nc2ccc(Br)cc2)no1

Ans.
["49.7 µM (inactive)", "> 100 µM (inactive)"]

====

Tested on: T47D
Assay: NCI tumour cell line growth inhibition, 48 h
Activity calls are given as the source filed them. No stated cut-off is given here; in the data, active = GI50 up to about 1.1 µM and inactive = higher.
Pick one and only one: Yes for active, No for inactive

Some solved cases for reference:
COMPOUND: Clc1ccc(CCN2CCN(CCCc3ccccc3)CC2)cc1Cl
CAT: No
//
COMPOUND: O=C(OCCN1CCCCC1)C(c1ccccc1)C1(O)CCSCC1 (configuration not stated)
CAT: No
//
COMPOUND: C[N+](C)(CCCn1ccnc1[N+](=O)[O-])CCCn1ccnc1[N+](=O)[O-]
CAT: No
//
COMPOUND: COc1ccc(/C=N/NC(=S)Nc2cc(C)ccc2OC)cc1
CAT: No
//
COMPOUND: O=C1c2ccccc2CC12CCC1(CC2)OCCO1
CAT: No

Qu. Recorded test call requested for Cc1ccc(S(=O)(=O)NNC2(NS(=O)(=O)c3ccc(Cl)cc3)C(Cl)=C(Cl)C(=O)c3ccccc32)cc1 (configuration not stated)
Ans. No

Qu. Recorded test call requested for "COCn1c2ccc(OC(C)=O)cc2c2c(=O)oc(N(C)C)nc21"
Ans. No

Qu. Recorded test call requested for "COc1ccccc1/C=C1\S/C(=N/Nc2nc(C)c(C(C)=O)s2)NC1=O"
Ans. No

====

Tested on: UACC-257
Experiment: NCI tumour cell line growth inhibition, 48 h
Active and inactive are the calls of the source. Cut-off read from the data, not from the text of the source: active = GI50 up to about 1.1 µM and inactive = higher.
MEASURE_NAME: GI50

See these solved cases before continuing.
MOLECULE: CC(C)C[C@H](NC(=O)CCc1ccccc1)B(O)O
GI50: 12.5 µM (inactive)
--
MOLECULE: COCn1c2ccc(OC(C)=O)cc2c2c(=O)oc(N(C)C)nc21
GI50: > 100 µM (inactive)
--
MOLECULE: Cc1cc2c(cc1Cl)Sc1nnc(Nc3ccccc3)n1S2(=O)=O
GI50: 16.6 µM (inactive)
--
MOLECULE: CCOC(=O)/C(=N\Nc1ccc(-n2c(C)nc3ccc(Br)cc3c2=O)cc1)C(C)=O
GI50: 84.5 µM (inactive)
--
MOLECULE: COc1c(C(=O)c2ccc([N+](=O)[O-])cc2)cc(C(C)(C)C)cc1C(C)(C)C
GI50: 22.9 µM (inactive)
--
MOLECULE: O=C1/C(=C/C=C/c2ccccc2)N=C(c2ccccc2)N1c1ccc(S(=O)(=O)Nc2nccs2)cc1
GI50: 34.6 µM (inactive)

Batch request: GI50 for each of the following molecules.
1. O=C1N=C(c2ccccc2)O/C1=C\c1ccccc1
2. COc1cccc(CC2Cc3ccccc3CC(=O)N2)c1 (stereo not given)
3. CCCCC1(C)C=C/C(=C2/C(=O)O/C(=C\C(=O)O)C2=O)O1 (stereo not given)
4. Nc1ncnc2c1ncn2C1OC(COP(=O)(O)CP(=O)(O)O)C(O)C1O (stereo not given)

Ans.
1: > 100 µM (inactive); 2: 29.2 µM (inactive); 3: > 100 µM (inactive); 4: > 100 µM (inactive)

====

Tested on: A549
Assay: NCI tumour cell line growth inhibition, 48 h
Activity calls are given as the source filed them. No stated cut-off is given here; in the data, active = GI50 up to about 1.1 µM and inactive = higher.
Pick one and only one: 1 (active), -1 (inactive)

COMPOUND: O=C1O/C(=C\c2ccc(O)cc2)C(c2ccc(O)c(Cl)c2)=C1Cl
EXPERIMENTAL_SYSTEM: A549
CAT: -1

Qu. Recorded test call requested for "COc1ccc(-c2cc(-c3ccccc3)c3c(n2)-c2ccccc2NC(=O)C3)cc1"
Ans. -1

Qu. Recorded test call requested for "Cc1cc2nc(C#N)c(N3CCN(c4ccc([N+](=O)[O-])cc4)CC3)nc2cc1C"
Ans. -1

Qu. Recorded test call requested for CC1OC2OC3C(OCC(O)C3O)OC(=O)[C@]34CCC(C)(C)CC3C3=CCC5[C@@]6(C)C[C@H](O)[C@H](OC7OC(CO)C(O)C(O)C7OC7OC(COC(=O)CC(C)(O)CC(=O)OC1C(OC1OC(CO)C(O)C(O)C1O)C2O)C(O)C(O)C7O)[C@@](C)(CO)C6CC[C@@]5(C)[C@]3(C)CC4 (some centres undefined)
Ans. 1

Qu. Recorded test call requested for "O=C(O)[C@@H]1CCC(=O)N1C(c1ccc2c(c1)OCO2)c1ccc2c(c1)OCO2"
Ans. -1

Qu. Recorded test call requested for "CC(C)OC(=O)c1ccc(NCc2cc(O)ccc2O)cc1"
Ans. -1

Qu. Recorded test call requested for O=C1CCC2C(O)c3cc4c(cc3C(c3ccc5c(c3)OCO5)N12)OCO4 (centres undefined)
Ans. -1

Qu. Recorded test call requested for NC(Cc1n[nH]c2ccccc12)C(=O)O (centres undefined)
Ans. -1

Qu. Recorded test call requested for "OCc1c[te]c(-c2ccccc2)c1"
Ans. -1

====

Test system: SNB-75
Assay: NCI tumour cell line growth inhibition, 48 h
Activity calls are given as the source filed them. No stated cut-off is given here; in the data, active = GI50 up to about 1.1 µM and inactive = higher.
MEASURE_NAME: GI50

COMPOUND: O=C(NC12CC3CC(CC(F)(C3)C1)C2)c1ccccc1
GI50: 43.9 µM (inactive)

COMPOUND: CC(Nc1ncc2c(n1)-c1ccccc1OC2)C(=O)O (centres undefined)
GI50: 40.7 µM (inactive)

COMPOUND: CN(C)C(=O)Oc1ccc[n+](C)c1 [PYRIDOSTIGMINE BROMIDE]
GI50: > 100 µM (inactive)

Batch request: GI50 for each of the following compounds.
1. N#Cc1c(-c2ccc([N+](=O)[O-])cc2)cc(-c2ccc(Nc3ccnc4cc(Cl)ccc34)cc2)[nH]c1=O
2. CC(C)(C)OC(=O)NCCCCC(N)C(N)=O (centres undefined)
3. CCOc1ccc2c(c1)[n+]([O-])c(C(N)=O)c(N)[n+]2[O-]
4. CC(=O)O[C@@H]1CC[C@@]2(C)C(CC[C@H]3[C@@H]4CC[C@H]([C@H](C)CCc5nc6cc(C)ccc6[nH]5)[C@@]4(C)CC[C@@H]32)C1 (some centres undefined)
5. CC(=O)N(CCCCNC(=O)C(F)(F)F)CCCNC(=O)C(F)(F)F

Ans.
1. > 100 µM (inactive)
2. > 100 µM (inactive)
3. > 100 µM (inactive)
4. 6.04 µM (inactive)
5. > 100 µM (inactive)

Qu. Which GI50 reading was recorded for the compound "COc1cccc(C2C(C(=O)Nc3cc(=O)n(C)c(=O)n3C)=C(C)NC(C)=C2C(=O)Nc2cc(=O)n(C)c(=O)n2C)c1O" ?
Ans. 23.9 µM (inactive)
